Entry source: the supplement of paper PMC11424490

System: NCI-H358
Experiment: combination cScore with adagrasib (Bliss gap around IC50) (%PoC); higher = stronger additive effect
Kind request: treat -0.6 as inclusive, so combination cScore with adagrasib at -0.6 or higher is 1.0, anything lower is 0.0.

{"columns": ["molecule", "category.label"],
 "data": [
  ["C[C@H](Nc1ncnc2nc[nH]c12)c1cc2cccc(Cl)c2c(=O)n1-c1ccccc1 [Duvelisib] + C=C(F)C(=O)N1CCN(c2nc(OC[C@@H]3CCCN3C)nc3c2CCN(c2cccc4cccc(Cl)c24)C3)C[C@@H]1CC#N [adagrasib]", 1.0],
  ["CNS(=O)(=O)Nc1nccc(Cc2c(C)c3ccc(Oc4ncccn4)cc3oc2=O)c1F + C=C(F)C(=O)N1CCN(c2nc(OC[C@@H]3CCCN3C)nc3c2CCN(c2cccc4cccc(Cl)c24)C3)C[C@@H]1CC#N [adagrasib]", 1.0],
  ["COc1cc2/c(=N/c3ccc(Br)cc3F)nc[nH]c2cc1OCC1CCN(C)CC1 [Vandetanib] + C=C(F)C(=O)N1CCN(c2nc(OC[C@@H]3CCCN3C)nc3c2CCN(c2cccc4cccc(Cl)c24)C3)C[C@@H]1CC#N [adagrasib]", 1.0],
  ["NC1(c2ccc(-c3nc4ccn5c(=O)[nH]nc5c4cc3-c3ccccc3)cc2)CCC1 [MK-2206] + C=C(F)C(=O)N1CCN(c2nc(OC[C@@H]3CCCN3C)nc3c2CCN(c2cccc4cccc(Cl)c24)C3)C[C@@H]1CC#N [adagrasib]", 1.0],
  ["O=C(/C=C/N1C[C@H]2C[C@@H]1CN2c1ccccn1)c1ccccc1O [PFI-3] + C=C(F)C(=O)N1CCN(c2nc(OC[C@@H]3CCCN3C)nc3c2CCN(c2cccc4cccc(Cl)c24)C3)C[C@@H]1CC#N [adagrasib]", 0.0],
  ["COc1cc(Nc2ncc(F)c(Nc3ccc4c(n3)N(COP(=O)(O)O)C(=O)C(C)(C)O4)n2)cc(OC)c1OC [Fostamatinib] + C=C(F)C(=O)N1CCN(c2nc(OC[C@@H]3CCCN3C)nc3c2CCN(c2cccc4cccc(Cl)c24)C3)C[C@@H]1CC#N [adagrasib]", 1.0],
  ["O=P1(N(CCCl)CCCl)NCCCO1 (centres undefined) [Cyclophosphamide] + C=C(F)C(=O)N1CCN(c2nc(OC[C@@H]3CCCN3C)nc3c2CCN(c2cccc4cccc(Cl)c24)C3)C[C@@H]1CC#N [adagrasib]", 0.0],
  ["Cc1c(-c2c(-c3ccc(F)o3)sc3ncnc(O[C@H](Cc4ccccc4OCc4ccnn4CC(F)(F)F)C(=O)O)c23)ccc(OCCN2CCN(C)CC2)c1Cl + C=C(F)C(=O)N1CCN(c2nc(OC[C@@H]3CCCN3C)nc3c2CCN(c2cccc4cccc(Cl)c24)C3)C[C@@H]1CC#N [adagrasib]", 1.0],
  ["Cc1c(Cn2c(C)nc3c(C(=O)O)cc(N4CCOCC4)cc32)cccc1C(F)(F)F + C=C(F)C(=O)N1CCN(c2nc(OC[C@@H]3CCCN3C)nc3c2CCN(c2cccc4cccc(Cl)c24)C3)C[C@@H]1CC#N [adagrasib]", 0.0]
]}

---

Test system: SW837
Assay: combination cScore with adagrasib (Bliss gap around IC50) (%PoC); higher = stronger additive effect
Listed compounds paired with reported combination cScore with adagrasib
observed.property: combination cScore with adagrasib

{"columns": ["compound", "endpoint.result"],
 "data": [
  ["CO[C@H]1/C=C/C[C@H](C)[C@@H](C)S(=O)(=O)NC(=O)c2ccc3c(c2)N(C[C@@H]2CC[C@H]21)C[C@@]1(CCCc2cc(Cl)ccc21)CO3 [AMG176] + C=C(F)C(=O)N1CCN(c2nc(OC[C@@H]3CCCN3C)nc3c2CCN(c2cccc4cccc(Cl)c24)C3)C[C@@H]1CC#N", -0.8],
  ["C[C@H](NC(=O)c1c(N)nn2cccnc12)c1cc2cccc(C#Cc3cnn(C)c3)c2c(=O)n1-c1ccccc1 [IPI-549] + C=C(F)C(=O)N1CCN(c2nc(OC[C@@H]3CCCN3C)nc3c2CCN(c2cccc4cccc(Cl)c24)C3)C[C@@H]1CC#N", 5.62],
  ["C[C@@H]1C[C@H]2[C@@H]3CCC4=CC(=O)C=C[C@]4(C)[C@@]3(F)[C@@H](O)C[C@]2(C)[C@@]1(O)C(=O)CO [Dexamethasone] + C=C(F)C(=O)N1CCN(c2nc(OC[C@@H]3CCCN3C)nc3c2CCN(c2cccc4cccc(Cl)c24)C3)C[C@@H]1CC#N", -0.93],
  ["CCCCCOC(=O)Nc1nc(=O)n([C@@H]2O[C@H](C)[C@@H](O)[C@H]2O)cc1F [Capecitabin] + C=C(F)C(=O)N1CCN(c2nc(OC[C@@H]3CCCN3C)nc3c2CCN(c2cccc4cccc(Cl)c24)C3)C[C@@H]1CC#N", 2.14],
  ["C/C=C1\\NC(=O)[C@H]2CSSCC/C=C/[C@H](CC(=O)N[C@H](C(C)C)C(=O)N2)OC(=O)[C@H](C(C)C)NC1=O [Romidepsin] + C=C(F)C(=O)N1CCN(c2nc(OC[C@@H]3CCCN3C)nc3c2CCN(c2cccc4cccc(Cl)c24)C3)C[C@@H]1CC#N", 6.42],
  ["COc1cc2/c(=N/c3ccc(Br)cc3F)nc[nH]c2cc1OCC1CCN(C)CC1 [Vandetanib] + C=C(F)C(=O)N1CCN(c2nc(OC[C@@H]3CCCN3C)nc3c2CCN(c2cccc4cccc(Cl)c24)C3)C[C@@H]1CC#N", 27.6],
  ["CC(C)N(CCCNC(=O)Nc1ccc(C(C)(C)C)cc1)C[C@H]1O[C@@H](n2ccc3c(N)ncnc32)[C@H](O)[C@@H]1O + C=C(F)C(=O)N1CCN(c2nc(OC[C@@H]3CCCN3C)nc3c2CCN(c2cccc4cccc(Cl)c24)C3)C[C@@H]1CC#N", 2.74],
  ["CNS(=O)(=O)Nc1nccc(Cc2c(C)c3ccc(Oc4ncccn4)cc3oc2=O)c1F + C=C(F)C(=O)N1CCN(c2nc(OC[C@@H]3CCCN3C)nc3c2CCN(c2cccc4cccc(Cl)c24)C3)C[C@@H]1CC#N", 3.07],
  ["CC[C@H](Nc1ncnc2[nH]cnc12)c1nc2cccc(F)c2c(=O)n1-c1ccccc1 [Cal-101] + C=C(F)C(=O)N1CCN(c2nc(OC[C@@H]3CCCN3C)nc3c2CCN(c2cccc4cccc(Cl)c24)C3)C[C@@H]1CC#N", 1.53],
  ["N[C@H]1CC[C@H](N[C@@H]2C[C@H]2c2ccccc2)CC1 [ORY-1001] + C=C(F)C(=O)N1CCN(c2nc(OC[C@@H]3CCCN3C)nc3c2CCN(c2cccc4cccc(Cl)c24)C3)C[C@@H]1CC#N", 2.12],
  ["N.N.[Cl][Pt][Cl] [Cisplatin] + C=C(F)C(=O)N1CCN(c2nc(OC[C@@H]3CCCN3C)nc3c2CCN(c2cccc4cccc(Cl)c24)C3)C[C@@H]1CC#N", -1.26],
  ["CNCc1ccc(-c2cc(-c3nc(-c4ccc(S(=O)(=O)C(C)C)cc4)cnc3N)on2)cc1 [VE-822/VX-970] + C=C(F)C(=O)N1CCN(c2nc(OC[C@@H]3CCCN3C)nc3c2CCN(c2cccc4cccc(Cl)c24)C3)C[C@@H]1CC#N", -9.66]
]}
